Values compiled from ChEMBL document CHEMBL1147662.

Experiment description: Half life in Wistar Han rat at 1 mg/kg, po
Format: ADME, organism-based
Design: dose 1 mg/kg, route oral
Condition parameters: in vivo
Readout name: half-life (min)

>>> measured_value("O=C(O)c1cccc(-c2cccc(NCCNC[C@H](O)c3cccc(Cl)c3)c2)c1")
180

* * *

Experiment description: Clearance in Beagle dog
Format: ADME, organism-based, Canis lupus familiaris
Condition parameters: in vivo
Readout name: clearance (mL/min/kg)

>>> measured_value("Cc1ccc(C(=O)O)cc1-c1cccc(NCCNC[C@H](O)c2cccc(Cl)c2)c1")
7.1
>>> measured_value("C[C@H](CNc1cccc(-c2cccc(C(=O)O)c2)c1)NC[C@H](O)c1cccc(Cl)c1")
7.3
>>> measured_value("O=C(O)c1cccc(-c2cccc(NCCNC[C@H](O)c3cccc(Cl)c3)c2)c1")
2.4
>>> measured_value("C[C@H](CNc1cccc(-c2ccccc2C(=O)O)c1)NC[C@H](O)c1cccc(Cl)c1")
11.3
>>> measured_value("O=C(O)c1ccncc1-c1cccc(NCCNC[C@H](O)c2cccc(Cl)c2)c1")
5.64
>>> measured_value("C[C@H](CNc1cccc(-c2ccc(C(=O)O)cc2C(=O)O)c1)NC[C@H](O)c1cccc(Cl)c1")
9.3
